Where these numbers come from: PubChem BioAssay

- assay.name: drug combination growth inhibition, ovarian cancer – cell-based, oncology-focused library, rucaparib conditional, profiling panel (AID 1508598)
- condition.summary: patient-derived ovarian cancer cells, CellTiter-Glo viability, 144 h; at 0.00122 µM; OCI-P5x cells; with rucaparib 20 µM; hits give low values; 100% = cells with rucaparib alone
# viability annotations

[
  {
    "compound": "O=C(NCC1(c2nc(-c3ccccc3)cs2)CCOCC1)c1cccc(-c2noc(C(F)(F)F)n2)c1",
    "unit.abbrev": "%",
    "viability": 104
  },
  {
    "compound": "CCC(C)(C)C(=O)O[C@@H]1C[C@@H](C)C=C2C=C[C@H](C)[C@@H](CC[C@@H]3C[C@@H](O)CC(=O)O3)[C@H]21",
    "unit.abbrev": "%",
    "viability": 110
  },
  {
    "compound": "Cc1[nH]c(C=C2C(=O)Nc3ccc(S(=O)(=O)Cc4c(Cl)cccc4Cl)cc32)c(C)c1C(=O)N1CCC[C@@H]1CN1CCCC1",
    "unit.abbrev": "%",
    "viability": 87.5
  },
  {
    "compound": "Cc1[nH]c(C=C2C(=O)Nc3ccc(S(=O)(=O)N(C)c4cccc(Cl)c4)cc32)c(C)c1C(=O)N1CCN(C)CC1",
    "unit.abbrev": "%",
    "viability": 92.9
  },
  {
    "compound": "C[C@]12CCC(=O)C=C1CC[C@@H]1[C@H]2[C@H](O)C[C@@]2(C)[C@H]1CC[C@@]2(O)C(=O)CO",
    "unit.abbrev": "%",
    "viability": 98.6
  },
  {
    "compound": "c1ccc(Cn2c(-c3ccc(OC[C@H](C4CCNCC4)n4c(-c5ccccc5)nc5ccccc54)cc3)nc3ccccc32)cc1",
    "unit.abbrev": "%",
    "viability": 98.1
  },
  {
    "compound": "CC#C[C@@]1(O)CC[C@H]2[C@@H]3CCC4=CC(=O)CCC4=C3[C@H](c3ccc(N(C)C)cc3)C[C@@]21C",
    "unit.abbrev": "%",
    "viability": 88.8
  },
  {
    "compound": "COc1cccc(-c2cc(F)ccc2[C@H]2Cc3nc(N)nc(C)c3C(=O)N2)n1",
    "unit.abbrev": "%",
    "viability": 101
  },
  {
    "compound": "C[C@@H]1C[C@H]2[C@@H]3CCC4=CC(=O)C=C[C@]4(C)[C@]3(F)[C@H](O)C[C@]2(C)[C@]1(O)C(=O)CO",
    "unit.abbrev": "%",
    "viability": 110
  },
  {
    "compound": "COc1cc(=C2C=c3ccccc3=N2)[nH]/c1=C\\c1[nH]c(C)cc1C",
    "unit.abbrev": "%",
    "viability": 69.4
  },
  {
    "compound": "Nc1ncn([C@@H]2O[C@H](CO)[C@@H](O)[C@@H]2O)c(=O)n1",
    "unit.abbrev": "%",
    "viability": 102
  },
  {
    "compound": "NC(=O)CCCSc1nc(N)nc(-c2c(Cl)cc3c4c(cccc24)COC3)n1",
    "unit.abbrev": "%",
    "viability": 98
  },
  {
    "compound": "CC(=O)O[C@H]1C(=O)[C@@]2(C)C([C@H](OC(=O)c3ccccc3)[C@]3(O)C[C@H](OC(=O)[C@H](O)[C@@H](NC(=O)c4ccccc4)c4ccccc4)C(C)=C1C3(C)C)[C@]1(OC(C)=O)CO[C@@H]1C[C@H]2O (stereo partly specified)",
    "unit.abbrev": "%",
    "viability": 119
  },
  {
    "compound": "CCCc1ccc(OCC(=O)N(Cc2nc(-c3cccnc3)no2)C(C)C)cc1",
    "unit.abbrev": "%",
    "viability": 102
  },
  {
    "compound": "CO[C@H]1/C=C\\C=C(\\C)C(=O)NC2=CC(=O)C(NCCN(C)C)=C(C[C@@H](C)C[C@H](OC)[C@H](O)[C@@H](C)/C=C(\\C)[C@@H]1OC(N)=O)C2=O",
    "unit.abbrev": "%",
    "viability": 114
  },
  {
    "compound": "COc1ccc(C2=N[C@H](c3ccc(Cl)cc3)[C@@H](c3ccc(Cl)cc3)N2C(=O)N2CCNC(=O)C2)c(OC(C)C)c1",
    "unit.abbrev": "%",
    "viability": 93.4
  },
  {
    "compound": "CCOC(=O)NCCCC(=O)NCCc1ccccc1",
    "unit.abbrev": "%",
    "viability": 95.3
  },
  {
    "compound": "Cc1cc2c(C(=O)NC[C@H](C)c3ccccc3)c(O)c(O)cc2c(O)c1-c1c(C)cc2c(C(=O)NC[C@H](C)c3ccccc3)c(O)c(O)cc2c1O",
    "unit.abbrev": "%",
    "viability": 98.5
  },
  {
    "compound": "CC(C)C[C@H](NP(=O)(O)O[C@@H]1O[C@@H](C)[C@H](O)[C@@H](O)[C@H]1O)C(=O)N[C@@H](Cc1c[nH]c2ccccc12)C(=O)O",
    "unit.abbrev": "%",
    "viability": 97.2
  },
  {
    "compound": "COc1ccccc1-c1cc(Nc2cccc(CS(N)(=O)=O)c2)ncn1",
    "unit.abbrev": "%",
    "viability": 96.8
  },
  {
    "compound": "CCOC(=O)c1cnc2ccc(-c3cncc(NS(=O)(=O)c4ccccc4)c3)cn12",
    "unit.abbrev": "%",
    "viability": 101
  },
  {
    "compound": "CC(C)(C(=O)NCC(F)(F)C(F)(F)F)C(=O)N[C@H]1C(=O)Nc2ccccc2-c2ccccc21",
    "unit.abbrev": "%",
    "viability": 103
  },
  {
    "compound": "COc1ccc(C2=N[C@@H](c3ccc(Cl)cc3)[C@H](c3ccc(Cl)cc3)N2C(=O)N2CCNC(=O)C2)c(OC(C)C)c1",
    "unit.abbrev": "%",
    "viability": 94.2
  },
  {
    "compound": "Cc1cc(C)c(-c2csc(NC(=O)c3ccccc3)n2)c(C)c1",
    "unit.abbrev": "%",
    "viability": 101
  },
  {
    "compound": "C=C1/C(=C/C=C2\\CCC[C@@]3(C)[C@H]2CC[C@H]3[C@H](C)/C=C/[C@@H](C)C(C)C)C[C@H](O)C[C@@H]1O",
    "unit.abbrev": "%",
    "viability": 105
  },
  {
    "compound": "Cc1cc(NC(=O)c2cccc(NC(=O)/C=C/CN(C)C)c2)ccc1Nc1nccc(-c2cccnc2)n1",
    "unit.abbrev": "%",
    "viability": 108
  },
  {
    "compound": "COC1=C2C[C@H](C)C[C@@H](OC)[C@H](O)[C@H](C)/C=C(\\C)[C@H](OC(N)=O)[C@@H](OC)/C=C/C=C(\\C)C(=O)NC(=CC1=O)C2=O",
    "unit.abbrev": "%",
    "viability": 93.1
  },
  {
    "compound": "CN(CC(=O)N(Cc1ccc(C2CCCCC2)cc1)c1ccc(C(=O)O)cc1)S(=O)(=O)c1c(F)c(F)c(F)c(F)c1F",
    "unit.abbrev": "%",
    "viability": 96
  },
  {
    "compound": "CC(=O)O[C@@]1(C(C)=O)CC[C@H]2[C@@H]3C=C(C)C4=CC(=O)CC[C@]4(C)[C@@H]3CC[C@@]21C",
    "unit.abbrev": "%",
    "viability": 99.8
  },
  {
    "compound": "CC(=O)O[C@@]1(C(C)=O)CC[C@H]2[C@@H]3C[C@H](C)C4=CC(=O)CC[C@]4(C)[C@@H]3CC[C@@]21C",
    "unit.abbrev": "%",
    "viability": 101
  },
  {
    "compound": "CC(C)NCCCn1c(Sc2cc3c(cc2I)OCO3)nc2c(N)ncnc21",
    "unit.abbrev": "%",
    "viability": 102
  }
]

---

- assay.name: chitosan synthesis blockers in C. neoformans – flow cytometry, Cibacron Brilliant Red staining (AID 1347148);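 also: compound exposure lasted three days at 37 degrees C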
- condition.summary: Cryptococcus neoformans chitosan, hits give low values; at 10 µM unless noted
The source made the active and inactive calls. The rule behind the calls is not given here. Square brackets hold non-standard residues; d marks the D form. Peptide text beside a SMILES is read from it. Nle = CCCC[C@H](N)C(=O)O
Known fold fluorescence of a selection of compounds

[
  {
    "compound": "CCCCC/C=C\\C/C=C\\C/C=C\\C/C=C\\CCCC(=O)O[C@@H](COCCCCCCCCCCCCCCCC)COP(=O)([O-])OCC[N+](C)(C)C",
    "fold fluorescence": "5.54 (inactive)"
  },
  {
    "compound": "N#Cc1cc2c(OC[C@@H](O)CN3CCN(C(c4ccccc4)c4ccccc4)CC3)cccc2[nH]1",
    "fold fluorescence": "3.58 [at 107.2 µM] (inactive)"
  },
  {
    "compound": "O=C(O)CCC/C=C\\C[C@@H]1C(=O)C[C@H](O)[C@H]1/C=C/[C@H](O)CCc1ccccc1",
    "fold fluorescence": "4.52 (inactive)"
  },
  {
    "compound": "COc1c(C=O)c(O)cc2c1C(=O)c1ccccc1C2=O",
    "fold fluorescence": "5.22 [at 177.1 µM] (inactive)"
  },
  {
    "compound": "C[C@@H](COc1ccccc1)N(CCCl)Cc1ccccc1",
    "fold fluorescence": "6.47 [at 164.6 µM] (inactive)"
  },
  {
    "compound": "CCCC[C@@H](C=O)NC(=O)[C@H](CC(C)C)NC(=O)[C@H](CC(C)C)NC(C)=O (Ac-Leu-Leu-[Nle]-aldehyde)",
    "fold fluorescence": "4.19 [at 130.4 µM] (inactive)"
  },
  {
    "compound": "CCCCC[C@H](O)C/C=C1/C(=O)C=C[C@@H]1C/C=C\\CCCC(=O)O",
    "fold fluorescence": "4.79 (inactive)"
  },
  {
    "compound": "CCCCC(C)(O)C/C=C/[C@H]1[C@H](CCCCCCC(=O)O)C(=O)C[C@@H]1O (some centres undefined)",
    "fold fluorescence": "3.98 (inactive)"
  },
  {
    "compound": "CCCCC/C=C\\C/C=C\\CCCCCCCC(N)=O",
    "fold fluorescence": "4.31 (inactive)"
  }
]
